experiment: protein stability index of a GFP-peptide fusion (yeast GPS) (PSI 1-4); higher = more stable; sorted into four equal gates, so the index is relative within each strain; settings: pdr5∆
Would you mind telling me the reported protein stability index of each entry?
Response field accepts a number only; no unit should be typed.

INPUT: Given GGPWFTDGELDIEFINS [RPC34] , state its recorded protein stability index.
OUTPUT: 3.42

INPUT: Then EIGLLPEDALVNDFSDI [SMC3] ?
OUTPUT: 2.91

INPUT: Item: IIEKITDQILQLLKEDS [RRP45]
OUTPUT: 2.5

INPUT: Continue with EISASESKFILEALRQN [RRP45]
OUTPUT: 2.98

INPUT: Now the same for DPNIKVNDTVKIDLASG [RPS4A]
OUTPUT: 2.75

INPUT: // same read-out, input: AFTCFCIKKIMENNEPA [SRB8]
OUTPUT: 2.64

INPUT: // query: AAKIIYLAHEDNKEKDF [PRE10]
OUTPUT: 3.18

====

Please provide measured protein stability index for the entries that follow.
assay: protein stability index of a GFP-peptide fusion (yeast GPS) (PSI 1-4); higher = more stable; sorted into four equal gates, so the index is relative within each strain; conditions: ubr1∆
Kindly provide the number alone.

INPUT: Look at this sequence and give its reported protein stability index. DNVSSQQMHEVRKELRG [RPP0]
OUTPUT: 2.82

INPUT: Similarly, TLLNFVSNNVLRRLEIL [ECM29] ?
OUTPUT: 2.48

INPUT: What do you get for FTVNVLYPDSSSFKKNL [RPN3] ?
OUTPUT: 2.44

INPUT: Further, for IPNQEVLQYSDWESDLH [YDL116W/NUP84] ?
OUTPUT: 2.18

INPUT: Would you kindly repeat that for DNKMDSVKEDVKNNQEL [SMC4] ?
OUTPUT: 3.36

====

experiment: protein stability index of a GFP-peptide fusion (yeast GPS) (PSI 1-4); higher = more stable; sorted into four equal gates, so the index is relative within each strain; settings: doa10∆
For each of the sequences below, state its protein stability index.
# answer = number (no unit)

INPUT: What protein stability index value was documented for this sequence, ELLDFLTSNLSNYSRTM [YJL039C/NUP192] ?
OUTPUT: 2.35

INPUT: Now consider PKKHLSETADETLENNI [RPN11] and answer again.
OUTPUT: 3.15

INPUT: Next sequence up: RNQVQTENVAQARIILN [YGR119C/NUP57]
OUTPUT: 3

INPUT: # repeat for ATSQYLKQDLKKISSFK [YGL172W/NUP49]
OUTPUT: 2.9

INPUT: Moving on to NLKLISVSLVDEFPSEL [SIR4]
OUTPUT: 2.57

INPUT: Then what about the sequence NVNLDDYPDDSGWTPFH [NAS6] ?
OUTPUT: 3

INPUT: Do the same for LYNVMGINKKKLLAISK [RPC31] please
OUTPUT: 2.83

INPUT: ELQKLVHDLNKYKSNTN [SMC2] , same question.
OUTPUT: 3.15

====

assay: protein stability index of a GFP-peptide fusion (yeast GPS) (PSI 1-4); higher = more stable; sorted into four equal gates, so the index is relative within each strain; conditions: pdr5∆
Given measured protein stability index, output 1 if it is greater than or equal to 3 and 0 if not.

INPUT: Please tell me: is the sequence EKGKKVTGFKDEVLETV [RPS1A] at or over 3 in terms of protein stability index?
OUTPUT: 0

INPUT: Another sequence: RVHANLQCISQINQGVP [SNF11]
OUTPUT: 0

INPUT: One more sequence: EFLINEGTPINNVYFAA [RPN14]
OUTPUT: 0

INPUT: Same thing, different sequence: PLDEIPVDVDFNLDLDD [REC8]
OUTPUT: 0

INPUT: // repeat for TLDRNTAAETFKLFNKY [RPL8A] and report
OUTPUT: 1

INPUT: Same again, this time with MSNKVKTKAMVPPINCI [SME1]
OUTPUT: 0

INPUT: Now the same for SFSFGAPESMKSTASTA [YOR098C/NUP1]
OUTPUT: 1

INPUT: Would you mind doing KNHTHNLPGNITVVLGV [RRP4] as well?
OUTPUT: 0

INPUT: Input NHDRINISNNLQKALTV [RPN8]
OUTPUT: 1

INPUT: SLASCLRSTEYSKSFEQ [POP1] ?
OUTPUT: 0

INPUT: Further, for FNNQGKLDLFKYFTELS [MED1] ?
OUTPUT: 0

INPUT: // query: TEVSRKSMKYVKKILPL [ECM29]
OUTPUT: 0

INPUT: And what about the sequence IYQVPEKDLEHWLQLAK [POP1] ?
OUTPUT: 1

INPUT: Also need TFIYFAYFLIIVPVIST [COB] , thanks.
OUTPUT: 0

INPUT: Then TEDGWIYHGNHDVGELF [PRE2] ?
OUTPUT: 0

INPUT: Please give the result for LCLMTWKEVMFDPSKDV [CDC53] too.
OUTPUT: 0

INPUT: Same for ARCYRYQKNKPYPKSRY [RPL10]
OUTPUT: 0

INPUT: Can you handle KKIVDDTIMENPEPNKK [IRR1] next?
OUTPUT: 0

INPUT: Subsequent entry: SRYEPKVFDCGDNIVMS [PRE7]
OUTPUT: 0

INPUT: Also KPGSKPEKTSTELVDGR [SIR3] , if possible.
OUTPUT: 0

INPUT: Note, next up: VLKSSVYEYVIASTLGP [RPC82]
OUTPUT: 0

INPUT: Continue with KEEFRLMISPKDEETTE [RRI2]
OUTPUT: 0

INPUT: Now the sequence DYSEIQRSRRKFSERRK [DSN1]
OUTPUT: 1

INPUT: Now the sequence NLGSRTKNNTQASGITA [SSN3]
OUTPUT: 0

INPUT: Same question, FRFDSIQRETLLPTNNG [GRR1] this time
OUTPUT: 0

INPUT: Also, STAFVPTIEYVQCPTVI [ARP9] please.
OUTPUT: 0

INPUT: Again, but for SALWSSRKGIAFGLGAI [ECM29]
OUTPUT: 0

====

assay: protein stability index of a GFP-peptide fusion (yeast GPS) (PSI 1-4); higher = more stable; sorted into four equal gates, so the index is relative within each strain; conditions: pdr5∆
measured.quantity: protein stability index
Reply: number alone, nothing else.

INPUT: Which protein stability index is reported for this sequence? QGRFRGNLSGKRVDFSG [RPO31]
OUTPUT: 2.12

INPUT: How about LIETVRQMKDVNAPLPT [RPN2] ?
OUTPUT: 3.12

INPUT: Also NGTLIGCVSYSPAALKQ [YMR153W/NUP53] , if possible.
OUTPUT: 2.27

INPUT: Also, KAALERLKVFEGIPPPY [RPL16A] please.
OUTPUT: 2.84

INPUT: Please do the same for PKVTPQMMQQAQQKLKQ [SRP54] as well.
OUTPUT: 1.18

INPUT: Note, next up: IPNRRFTLWWSPTINRA [PRP8]
OUTPUT: 2.28

INPUT: Next up: KLDIISDPESERPAIEF [RPN14]
OUTPUT: 3.05

INPUT: Now the same for PKDFSPNFTGIDKLMLS [SSN2]
OUTPUT: 1.38

INPUT: What would you report for DIISGKIHSILPVMESL [YJR042W/NUP85] ?
OUTPUT: 3.13

INPUT: Then MGQIATFIYFAYFLIIV [COB] ?
OUTPUT: 1.29

INPUT: One more sequence: PATTSQMAKDVTTFLNW [CYT1]
OUTPUT: 3.02

INPUT: Note, next up: ITLHPSFFGPRMKQYLK [RPB7]
OUTPUT: 2.47

INPUT: Lookup RTNNVPMIKAEETPSKT [NUT1]
OUTPUT: 2.86

INPUT: Next record, please: NACAKYGRDDMENIKKS [ISW2]
OUTPUT: 2.93

INPUT: Would you kindly repeat that for YHLLNYDPIKRIDAFNA [SSN3] ?
OUTPUT: 1.77

INPUT: Also need EGGKNQAELLQLAVKII [YJL039C/NUP192] , thanks.
OUTPUT: 3.28

INPUT: Moving on to QRKKQSDVLRFLQRVRV [RPL15A]
OUTPUT: 2.26

INPUT: Also TSQNPQRDAEISQPKSM [BRR2] ?
OUTPUT: 3.04

INPUT: Again, but for MVNESDGVTHALYPQEA [RPB2]
OUTPUT: 3.26

INPUT: For INSSNEALVQAFAFCIP [YCG1] then?
OUTPUT: 2.31
